- measurement.target: hCRTH2 receptor (Homo sapiens, UniProt Q9Y5Y4)
- Construct: expressed in transfected cells; host or cells: HEK293 (recombinant HEK293-hCRTH2), membrane fragments
- Sequence (Q9Y5Y4 whole entry, the tested form may be a part): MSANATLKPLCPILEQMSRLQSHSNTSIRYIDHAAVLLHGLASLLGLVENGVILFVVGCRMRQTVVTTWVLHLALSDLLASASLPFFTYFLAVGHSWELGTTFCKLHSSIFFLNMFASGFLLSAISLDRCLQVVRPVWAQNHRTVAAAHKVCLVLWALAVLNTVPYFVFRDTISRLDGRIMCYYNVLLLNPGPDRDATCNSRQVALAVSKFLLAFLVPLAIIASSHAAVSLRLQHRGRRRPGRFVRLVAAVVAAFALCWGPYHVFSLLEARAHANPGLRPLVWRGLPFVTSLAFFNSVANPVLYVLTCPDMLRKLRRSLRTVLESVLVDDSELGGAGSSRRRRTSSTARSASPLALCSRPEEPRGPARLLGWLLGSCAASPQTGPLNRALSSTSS
- protocol.text: hCRTH2 receptor membranes radioligand displacement assay
- condition.notes: displacement of 3H-PGD2 (2.5 nM), HEK293-hCRTH2 membrane fragments, Binding-Buffer with 0.1% BSA
Attribute: pIC50
Please report pIC50 as the negative decimal logarithm of the molar concentration, giving only the number.

Recorded pIC50, per entry:
compound	endpoint.value
Cc1ccc2c(n1)c1c(n2CC(=O)O)CCC(N(C)c2ncc(Cl)cn2)C1 (centres unmarked)	8.72
O=C(O)Cn1c2c(c3nc(F)ccc31)C[C@@H](Nc1ncc(Cl)cn1)CC2	7.72
CN(c1ncc(Cl)cn1)[C@H]1CCc2c(c3ncccc3n2CC(=O)O)C1	8.64
CN(c1ncc(Cl)cn1)C1CCc2c(c3nc(C(F)(F)F)ccc3n2CC(=O)O)C1 (centres unmarked)	8.00
CN(c1ncc(Cl)cn1)[C@H]1CCc2c(c3nc(F)ccc3n2CC(=O)O)C1	8.25
O=C(O)Cn1c2c(c3ncccc31)CC(Nc1ncc(Cl)cn1)CC2 (centres unmarked)	7.72
CN(c1ncc(Cl)cn1)C1CCc2c(c3nc(F)ccc3n2CC(=O)O)C1 (centres unmarked)	8.51

As a next step, examine the compound that follows.
Bench note: what pIC50 did COc1ccc2c(n1)c1c(n2CC(=O)O)CCC(N(C)c2ncc(Cl)cn2)C1 (centres unmarked) show?
7.89
